# target.entity: LC3B (human, UniProt Q9GZQ8 1-125)
# protocol: ITC (table of Kd values)
pKd: −log10 of the molar value.
measured.endpoint: pKd

* PEDDWTEFSSEEIREARQAAASHAPS [AnkG LIR (AnkG WT peptide, rat 480 kD AnkG residues 1985-2010)] | 6.47
* VEEEWVIVSDEEIEEARQKAPLEITEY [AnkB LIR (AnkB WT peptide, human 440 kD AnkB residues 1588-1614)] | 8.38
